FYI, the data here is from patent US6914045B2.

- Tested on: Staphylococcus sp.
- METHOD: in vitro antibacterial evaluation, MIC by broth dilution
- Format: cell-based
- MEASUREMENT PARAMETERS: broth dilution, 18 hours at 35° C.; strain GC 4543
This section presents compounds with their documented MIC Staphylococcus aureus-SMITH (GC 4543) values.
PROPERTY MEASURED: MIC Staphylococcus aureus-SMITH (GC 4543) (mg/L)

COMPOUND	ASSAY SYSTEM	VALUE RELATION SIGN	EXPERIMENTAL VALUE
CC(C)=CCCC(C)CC1OCC2OC(OC3C(CO)OC(Oc4ccc(CC5NC(=O)C(C(C)c6ccccc6)NC(=O)CNC(=O)C(CO)NC(=O)C(C(O)C6CNC(=N)N6C6OC(CO)C(O)C(O)C6O)NC(=O)C(C(O)C6CNC(=N)N6)NC5=O)cc4)C(O)C3O)C(O)C(O)C2O1 (stereo not shown)	Staphylococcus sp.	=	8
CC(c1ccccc1)C1NC(=O)CNC(=O)C(CO)NC(=O)C(C(O)C2CNC(=N)N2C2OC(CO)C(O)C(O)C2O)NC(=O)C(C(O)C2CNC(=N)N2)NC(=O)C(Cc2ccc(OC3OC(CO)C(OC4OC(CO)C(O)C(OCc5ccc(OCc6ccccc6)cc5)C4O)C(O)C3O)cc2)NC1=O (stereo not shown) [Example 231c]	Staphylococcus sp.	=	1
CC(c1ccccc1)C1NC(=O)CNC(=O)C(CO)NC(=O)C(C(O)C2CNC(=N)N2C2OC(CO)C(O)C(O)C2O)NC(=O)C(C(O)C2CNC(=N)N2)NC(=O)C(Cc2ccc(OC3OC(CO)C(OC4OC5COC(c6ccc(C(=O)O)cc6)OC5C(O)C4O)C(O)C3O)cc2)NC1=O (stereo not shown)	Staphylococcus sp.	>	64
